Tested on: NCI-H522 lung
Test: NCI-60 one-dose screen, 48 h (100 = growth as untreated, 0 = no growth, -100 = all killed)
Details: 10 µM unless noted
Compounds without any hit were thinned out: in the full panel of roughly 83,000, 20% have a hit. Active and inactive are the calls of the source. The calls were made as follows: active = growth percent below 10; inactive = the rest.
# growth per entry

- Molecule: "Cc1cc(C)nc(SCC(=O)Nc2cccc(N=Cc3ccccc3O)c2)n1"
  growth: "86.6% (inactive)"
- Molecule: "COc1ncc(-c2ccc3nccc(C#CCCCCC(=O)O)c3c2)cc1NS(=O)(=O)c1ccc(F)cc1F"
  growth: "43.4% (inactive)"
- Molecule: "O=C(O)c1ccccc1C(F)(F)F"
  growth: "72.1% (inactive)"
- Molecule: "C=C1C(=O)O[C@H]2[C@H]1CC/C(COC(=O)NCc1ccc(Cn3c(=O)sn(-c4ccc(Cl)cc4)c3=O)cc1)=C\\CC[C@@]1(C)O[C@@H]21"
  growth: "-8.38% (active)"
- Molecule: "CC1Cc2c(Cl)ncnc2N(C)c2ccc(Cl)cc21 (stereo unspecified)"
  growth: "-68.3% (active)"
- Molecule: "O=C(O)c1cn(C2CC2)c2cc(N3CCN(Cc4c(O)ccc5ccccc45)CC3)c(F)cc2c1=O"
  growth: "19.7% (inactive)"
- Molecule: "O=C(Nc1cc(-c2cccnc2)nc(NCCCN2CCOCC2)n1)c1cc(Br)cc(C(F)(F)F)c1"
  growth: "60.2% (inactive)"
- Molecule: "Nc1ccc2c(c1)Cc1cc(NC(=O)C(F)(F)F)ccc1-2"
  growth: "90.3% (inactive)"
- Molecule: "N#Cc1c(Cl)nc(SCC2CO2)nc1-c1ccccc1 (stereo unspecified)"
  growth: "101% (inactive)"
- Molecule: "O=C1CC(c2ccc3c(c2)OCO3)Nc2ccccc21 (stereo unspecified)"
  growth: "19.8% (inactive)"
- Molecule: "COc1ccc(-c2cc(-c3ccccc3)nc(SCCCCCC(=O)NO)n2)cc1"
  growth: "10.1% (inactive)"
- Molecule: "c1cc2ccc1CNCCN1CCNCc3ccc(cc3)Oc3ccc(cc3)CNCCN(CCNCc3ccc(cc3)O2)CCNCc2ccc(cc2)Oc2ccc(cc2)CNCC1"
  growth: "-84.3% (active)"
- Molecule: "CCOC(=O)c1sc2nc(-c3cc(OC)c(OC)c(OC)c3)nc(N3CCOCC3)c2c1C"
  growth: "12.1% (inactive)"
- Molecule: "O=C(CCCCCCSc1nc(-c2ccc(Cl)cc2)cc(-c2ccc(Cl)cc2)n1)NO"
  growth: "17.1% (inactive)"
- Molecule: "O=C(O)CC1CCCCC1c1ccccc1 (stereo unspecified)"
  growth: "90.1% (inactive)"
- Molecule: "COc1ccc2c(c1)c(-c1noc(C(=O)c3cn(C)c4ncc(Br)cc34)n1)cn2C"
  growth: "67.9% (inactive)"
- Molecule: "COc1ccc(-c2ccc(NNC(=O)c3ccc(F)cc3)nn2)cc1OC"
  growth: "72.8% (inactive)"
- Molecule: "COc1cc(OC)c(/C=C/C(=O)c2c(N)cc(OC)cc2OC)c(OC)c1"
  growth: "-11.8% (active)"
- Molecule: "CCCN1CC(c2ccc(OC)c(OC)c2)=C(c2cn(C(=O)OCC)c3ccccc23)C1=O"
  growth: "24% (inactive)"
- Molecule: "c1nc(N2CCOCC2)c2[nH]ccc2n1"
  growth: "102% (inactive)"
- Molecule: "CCOC(=O)c1cc(C(=O)c2ccc(OC)c(OC)c2)n2ccc(-c3ccccn3)cc12"
  growth: "-3.85% (active)"
